B1: minF1; the commonest letter at each place (parent)
chain: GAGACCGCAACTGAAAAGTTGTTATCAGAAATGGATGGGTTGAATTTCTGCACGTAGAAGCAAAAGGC

- Variants of: B1
- ASSAY: fraction ligated after 30 min (ligated reads / total reads); higher = more ligase activity
- STUDY CONDITIONS: with F1*subA RNA substrate (template-directed ligation), 42 °C
READOUT LABEL: fraction ligated
Answer with a bare number; do not write a unit.

record_sequence="GAGACCGCAACTGAAAAGTTGTTATCAGATATGGATGGGTTGGATTTCTGCACGTAGAAGCAAAAGGC [A30T A43G]" readout_label="fraction ligated" recorded_result=0.0459
record_sequence="GAGACCGCAACTGAAAAGTTGTTATCACAAATTGATGGGTTGAATTTCTGCACGTAGAAGCAAAAGGC [G28C G33T]" readout_label="fraction ligated" recorded_result=0.639
record_sequence="GAGACCGCAACTGAAAAGTTGTTATCAGAAATGCATGGGTTGCATTTCTGCACGTAGAAGCAAAAGGC [G34C A43C]" readout_label="fraction ligated" recorded_result=0.00266
record_sequence="GAGACCGCAACTGAAAAGTTGTTATCAGGAATGGATGGGTTAAATTTCTGCACGTAGAAGCAAAAGGC [A29G G42A]" readout_label="fraction ligated" recorded_result=0.28
record_sequence="GAGACCGCAACTGAAAAGTTGTTATCACAAATGGATGGGTTCAATTTCTGCACGTAGAAGCAAAAGGC [G28C G42C]" readout_label="fraction ligated" recorded_result=0.0102

Entry GAGACCGCAACTGAAAAGTTGTTATCAGAAGTGGATGGGTTTAATTTCTGCACGTAGAAGCAAAAGGC [A31G G42T] : reported fraction ligated = ?
0.126

Entry GAGACCGCAACTGAAAAGTTGTTATCAGAAATGAATGGGTTGGATTTCTGCACGTAGAAGCAAAAGGC [G34A A43G] : reported fraction ligated = ?
0.00716

Entry GAGACCGCAACTGAAAAGTTGTTCTCAGAAATTGATGGGTTGAATTTCTGCACGTAGAAGCAAAAGGC [A24C G33T] : reported fraction ligated = ?
0.0129

Entry GAGACCGCAACTGAAAAGTTGTTATCGGAAATGGTTGGGTTGAATTTCTGCACGTAGAAGCAAAAGGC [A27G A35T] : reported fraction ligated = ?
0.0618

Entry GAGACCGCAACTGAAAAGTTGTTATCAGAAATGGACGGGTTGGATTTCTGCACGTAGAAGCAAAAGGC [T36C A43G] : reported fraction ligated = ?
0.00496

Entry GAGACCGCAACTGAAAAGTTGTTATCAGAAATCTATGGGTTGAATTTCTGCACGTAGAAGCAAAAGGC [G33C G34T] : reported fraction ligated = ?
0.00568

Entry GAGACCGCAACTGAAAAGTTGTTATCAGATATGGATGGGTTAAATTTCTGCACGTAGAAGCAAAAGGC [A30T G42A] : reported fraction ligated = ?
0.202

Entry GAGACCGCAACTGAAAAGTTGTTATCAGAAGTCGATGGGTTGAATTTCTGCACGTAGAAGCAAAAGGC [A31G G33C] : reported fraction ligated = ?
0.765

Entry GAGACCGCAACTGAAAAGTTGTTATCAGAAATGGAGGGGTTGATTTTCTGCACGTAGAAGCAAAAGGC [T36G A44T] : reported fraction ligated = ?
0.0156

Entry GAGACCGCAACTGAAAAGTTGTTATCAGAAACGAATGGGTTGAATTTCTGCACGTAGAAGCAAAAGGC [T32C G34A] : reported fraction ligated = ?
0.00321
